- ASSAYED SYSTEM: Schistosoma mansoni thioredoxin glutathione reductase (TGR)
- TEST DETAILS: qHTS Assay for the Inhibitors of Schistosoma Mansoni Peroxiredoxins; note: nearly all actives have a fitted effect of over 60% in size
- TEST CONTEXT: purified TGR, DTNB reduction, TNB absorbance 405 nm; series mostly up to 114 µM
In all, about 360,000 compounds went through this assay and about 11,000 (3.1%) were called active. Another 4% or so got no clear call; they are omitted. Calls come from the whole dose curve; as a rule, active = well fitted inhibition curve with a large enough effect; inconclusive = small, poorly fitted or top-dose-only effect; inactive = no such curve, though single readings can be large or run the other way. This excerpt belongs to a sample that is enriched for actives.
Classes used: active, inactive

>>> print(df.to_string())
                                    compound     group
 0  CCOc1ccc(S(=O)(=O)Nc2ccc3oc4c(c3c2)CC(C)CC4)cc1 (configuration not stated)  inactive
 1    O=[N+]([O-])c1ccc(C=Nc2ccc(Cl)cc2Cl)s1    active
 2  CCOc1ccccc1NC(=O)c1ccc2c(c1)CCN2S(=O)(=O)c1ccc(C)cc1  inactive
 3       COc1ccccc1CNc1nc2ccc(Cl)cc2n2cnnc12  inactive
 4  Cc1ccc(CNC(=O)CSc2c(C)cnc3c2c(=O)n(C)c(=O)n3C)cc1  inactive
 5  Cc1oc(-c2ccccc2F)nc1CS(=O)CC(=O)NCCN1CCCCC1C (configuration not stated)  inactive
 6  COc1ccccc1N1CCN(c2ccc(=O)n(CC(=O)NCc3ccc(OC(C)C)cc3)n2)CC1  inactive
 7  CNC(=O)c1ccc(-c2nc(CN3CCc4ccccc43)c(C)o2)cc1  inactive
 8  COc1ccc(N2CCN(C(=O)CSCc3nc(-c4ccccc4Cl)oc3C)CC2)cc1  inactive
 9  COc1ccc(-c2nc(CS(=O)CC(=O)NCc3ccccn3)c(C)o2)cc1 (configuration not stated)    active
10  CN1CCN(c2oc(-c3ccc(COc4ccc(Cl)cc4)o3)nc2C#N)CC1  inactive
11               Cc1occc1C(=O)N1CCCc2ccccc21    active
12  Cc1ccc(-c2nc(CSCC(=O)NC3CCN(Cc4ccccc4)CC3)c(C)o2)cc1  inactive
13          COc1cccc(Nc2nc3ccccc3c3nncn23)c1  inactive
14  COc1ccccc1CN1CCC(CNC(=O)c2cnn(-c3ccccc3Cl)c2C2CCN(C(=O)OC(C)(C)C)CC2)CC1  inactive
15  Cc1ccc(CNC(=O)CCC(=O)N2Cc3ccccc3Oc3ncccc32)cc1  inactive
16       O=C(c1c(Cl)nc2sccn12)N1CCCc2ccccc21  inactive
17  O=C(CSc1nnc(CNC(=O)c2ccccc2)n1-c1ccc(F)cc1)Nc1ccccc1F  inactive
18  COc1ccc(CNC(=O)CS(=O)Cc2nc(-c3cccc(C)c3)oc2C)cc1 (configuration not stated)  inactive
19  CCC(=O)N1CCc2cc(S(=O)(=O)NC(C(=O)Nc3ccc(C(C)=O)cc3)C(C)C)ccc21 (configuration not stated)  inactive
20  COc1ccc(CCNC(=O)c2ccc(CSCc3ccc(C)cc3)o2)cc1OC  inactive
21                   CC(C)(C)NC(=O)NCc1ccco1  inactive
